Test System: Tyrosyl-tRNA synthetase, putative (Trypanosoma cruzi (strain CL Brener)) (UniProt Q4DSP6)
Sequence (Q4DSP6 as listed by the source): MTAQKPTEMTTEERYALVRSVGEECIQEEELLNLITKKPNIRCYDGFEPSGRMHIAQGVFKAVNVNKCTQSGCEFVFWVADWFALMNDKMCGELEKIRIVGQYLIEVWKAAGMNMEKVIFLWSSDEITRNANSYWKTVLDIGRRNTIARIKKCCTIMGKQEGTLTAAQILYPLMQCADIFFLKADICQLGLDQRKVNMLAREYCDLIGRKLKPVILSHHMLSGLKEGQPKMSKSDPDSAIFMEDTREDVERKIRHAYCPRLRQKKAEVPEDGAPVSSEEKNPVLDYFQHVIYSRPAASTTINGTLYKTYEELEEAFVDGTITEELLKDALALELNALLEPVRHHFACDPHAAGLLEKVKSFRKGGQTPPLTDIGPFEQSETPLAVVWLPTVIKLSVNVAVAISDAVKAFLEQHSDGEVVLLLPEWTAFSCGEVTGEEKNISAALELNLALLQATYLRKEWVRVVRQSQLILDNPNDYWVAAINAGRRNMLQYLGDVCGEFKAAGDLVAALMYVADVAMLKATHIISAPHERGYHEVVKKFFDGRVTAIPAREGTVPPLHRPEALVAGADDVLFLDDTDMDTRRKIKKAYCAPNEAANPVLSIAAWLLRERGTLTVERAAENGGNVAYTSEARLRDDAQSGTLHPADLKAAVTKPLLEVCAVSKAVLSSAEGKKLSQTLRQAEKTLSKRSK
Assay Text: Trypanosoma cruzi tyrosyl tRNA synthetase (TcYRS) SOP
Format: functional
Parameters: scale not given: direction of the effect not stated beside the values
Experimental Setup: 30 µM
Measurement Kind: Percent Effect (%)
Kindly answer with a numeric value in %, unit omitted.

Fill in the blank: the reported Percent Effect of `CCS(=O)(=O)c1ccc(N2CCC(NC(=O)c3cnn(C)c3)CC2)cc1` is ____.
13.6

Fill in the blank: the reported Percent Effect of Cc1ccc(C(NC(=O)CC2CCN(C(C)C)CC2)C(=O)O)cc1 (centres undefined) is ____.
9.76

Fill in the blank: the reported Percent Effect of `CN(CCNC(=O)Nc1ccncc1)C1CCCCC1` is ____.
23.5

Fill in the blank: the reported Percent Effect of `CN(C)c1nccc(N2CCO[C@H]3CN(CC4CCOCC4)C[C@H]32)n1` is ____.
18.5

Fill in the blank: the reported Percent Effect of `COC(=O)CCC(=O)N1CCc2[nH]nc(-c3ccc4c(c3)OCO4)c2C1` is ____.
6.17

Fill in the blank: the reported Percent Effect of `Cc1nc(C2(NCC(=O)NCCc3cccs3)CCCC2)no1` is ____.
15.6

Fill in the blank: the reported Percent Effect of `CC(C)c1nn(C)c(N(C)C)c1CNCCC(=O)NC1CCCC1` is ____.
23.5

Fill in the blank: the reported Percent Effect of O=C(NCCNCC1CNc2ccnn2C1)c1ccc(F)cc1 (centres undefined) is ____.
14.6

Fill in the blank: the reported Percent Effect of `COc1cccc(N2CCN(Cc3ncc[nH]3)CC2=O)c1` is ____.
10.3

Fill in the blank: the reported Percent Effect of Cc1nc(C2CCCN(C(=O)c3sccc3C3CC3)C2)no1 (centres undefined) is ____.
0

Fill in the blank: the reported Percent Effect of c1ccc(-c2nnn3c2COC(CNCC2CCOCC2)C3)cc1 (centres undefined) is ____.
19.2

Fill in the blank: the reported Percent Effect of Cc1ccc(CC(=O)N2CCCC(c3cc(C)[nH]n3)C2)cn1 (centres undefined) is ____.
15.8

Fill in the blank: the reported Percent Effect of `Cc1cn2nc(N3CCCN(Cc4noc(C)n4)CC3)sc2n1` is ____.
12.7

Fill in the blank: the reported Percent Effect of `O=C(c1ccnnc1)N1C[C@@H](OCC2CCCC2)[C@H]2OCCC[C@H]21` is ____.
-8.54

Fill in the blank: the reported Percent Effect of CCOCC(O)CN1CCN(C(=O)c2cc(F)ccc2C)CC1 (centres undefined) is ____.
2.44

Fill in the blank: the reported Percent Effect of COc1ncccc1CNC(=O)NC1CCOc2ccccc21 (centres undefined) is ____.
13.4

Fill in the blank: the reported Percent Effect of Cc1cc(C)n(CC2CN(CCOc3cccc(C#N)c3)CCO2)n1 (centres undefined) is ____.
-6.17

Fill in the blank: the reported Percent Effect of CN(C)CC1CSCCCN1C(=O)c1ccc(C(C)(C)C)cc1 (centres undefined) is ____.
16.7

Fill in the blank: the reported Percent Effect of O=C1CC(c2ccccc2)C2(CCN(CC3CC3)CC2)N1 (centres undefined) is ____.
20

Fill in the blank: the reported Percent Effect of `COc1ccc(CN2CCC(O)CC2)c(OC)c1` is ____.
9.76

Fill in the blank: the reported Percent Effect of `Cc1cc(C(=O)NCc2cccnc2OC(C)C)no1` is ____.
13.6

Fill in the blank: the reported Percent Effect of Fc1cccc(N2CCCC3(C2)CN(c2ncccn2)CCO3)c1 (centres undefined) is ____.
14.1

Fill in the blank: the reported Percent Effect of CCOCC1CN(Cc2cccc(C#N)c2)Cc2nccn2C1 (centres undefined) is ____.
3.7

Fill in the blank: the reported Percent Effect of CC(=O)N1CCN(c2cc(C3CN(C)CCO3)nc(C)n2)CC1 (centres undefined) is ____.
14.3

Fill in the blank: the reported Percent Effect of `CN(C)CCNC(=O)c1cnc2c(c1)nc(-c1ccccc1Cl)n2C` is ____.
16.1

Fill in the blank: the reported Percent Effect of `Cn1ccnc1CN1CC[C@@H](NS(C)(=O)=O)[C@@H]1Cc1cccnc1` is ____.
10.3

Fill in the blank: the reported Percent Effect of `Cc1nccn1-c1cc(CNC(=O)C(C)(C)C)ccn1` is ____.
17.5

Fill in the blank: the reported Percent Effect of `O[C@H]1CCN(Cc2ccoc2)[C@H]1Cc1cccnc1` is ____.
2.5

Fill in the blank: the reported Percent Effect of `C[C@@H]1CN(C(=O)c2ccc(C#N)nc2)C[C@@]1(O)C1CC1` is ____.
14.6

Fill in the blank: the reported Percent Effect of CC(Cc1ccco1)NC(=O)Nc1cnn(CC(N)=O)c1 (centres undefined) is ____.
7.59

Fill in the blank: the reported Percent Effect of COCC1CN(C(=O)c2ccnnc2)Cc2c1cnn2C (centres undefined) is ____.
1.28

Fill in the blank: the reported Percent Effect of `CN(C)CCn1c(=O)oc2ccc(NC(=O)c3cc(Cl)c[nH]3)cc21` is ____.
21

Fill in the blank: the reported Percent Effect of `CCN(Cc1nc2c(cnn2C)c(=O)[nH]1)c1cccc(Cl)c1` is ____.
14.1

Fill in the blank: the reported Percent Effect of COc1ccc(Oc2cncc(C3CCCN3C(C)=O)n2)cc1 (centres undefined) is ____.
3.9

Fill in the blank: the reported Percent Effect of `CNS(=O)(=O)Cc1ccc(CNC(=O)Nc2cn[nH]c2)cc1` is ____.
13.9

Fill in the blank: the reported Percent Effect of CC1=Nc2c(c(=O)[nH]n2C(C)C)C(c2cccs2)S1 (centres undefined) is ____.
25.6

Fill in the blank: the reported Percent Effect of `Cc1ncsc1C(=O)N(C)Cc1cccc(Cl)c1` is ____.
19.5

Fill in the blank: the reported Percent Effect of C=Cc1ccc(C(=O)N2CCCC(Nc3ccc(OC)cc3)C2)cc1 (centres undefined) is ____.
19.5

Fill in the blank: the reported Percent Effect of `O=S(=O)(NCC1CCN(c2cnccn2)CC1)c1c(F)cccc1F` is ____.
6.41
